system: HS 578T breast; assay: NCI-60 one-dose screen, 48 h (100 = growth as untreated, 0 = no growth, -100 = all killed); conditions: 10 µM unless noted
Compounds without any hit were thinned out: in the full panel of roughly 83,000, 20% have a hit. Active and inactive are the calls of the source. How the source made its calls: active means growth percent below 10; inactive means the rest.
READOUT TYPE: growth

* O=C1CCC(C(=O)N/N=C/c2cc(F)ccc2F)N1 (stereo not drawn) | 99.1% (inactive)
* O=C(Nc1cccnc1Nc1ccc(Cl)cc1)c1cn(Cc2cccc(Oc3ccccc3)c2)nn1 | 39.9% (inactive)
* CCOC(=O)c1[nH]cc2c1CCc1sc(Nc3ccccn3)nc1-2 | 95.6% (inactive)
* COc1cc(Cc2cc(-c3ccccc3)nn(Cc3ccccc3)c2=O)cc(OC)c1OC | 74.9% (inactive)
* COc1ccc(-c2cc(C(=O)N3N=C(c4ccc(N)cc4)CC3c3ccc(Cl)cc3)c3ccccc3n2)cc1 (stereo not drawn) | 16.4% (inactive)
* CCOC(=O)c1cn2ncnc(Oc3ccc(NC(=O)NC4CC4)c(Cl)c3)c2c1C | 100% (inactive)
* CCN(CC)CCn1c2ccc(OC)cc2c2sc3cc(O)ccc3c(=O)c21 | 60% (inactive)
* CCOC(=O)C1=C(CCl)N(C)C(=O)NC1c1ccc2c(c1)OCO2 (stereo not drawn) | 50% (inactive)
* COC(=O)[C@]1(C)CCC[C@]2(C)[C@H]3C[C@@H]4[C@H]5[C@@H]6CC/C(=N\OCC/C(N)=N/O)[C@H]5[C@@]3(CC[C@H]21)CC4(C(C)C)O6 | 66.3% (inactive)
* CN1CC(c2ccc(Br)cc2)C(C(=O)c2ccc(Br)cc2)C12C(=O)Nc1ccccc12 (stereo not drawn) | 89.3% (inactive)
* NC(=O)c1ccccc1OCC(=O)Nc1ccc(Cl)c(Cl)c1 | 98.7% (inactive)
* COc1ccc2c(c1)oc1c(C)c3c(c(C)c12)C(=O)N(CCOS(C)(=O)=O)C3=O | 109% (inactive)
* CCN(CC)CCOc1ccc(/C(=C(\C)Cc2ccc(OC)cc2)c2ccc(OC(=O)NCc3ccccc3)cc2)cc1 | 63.2% (inactive)
* CCN(CC)CCCNc1cc(OC)c(OC)c2cccnc12 | 74.3% (inactive)
* Fc1ccc2[nH]cc(-c3nc(-c4c[nH]c5c(Cl)nccc45)cs3)c2c1 | 39% (inactive)
* O=C(/C=C/c1ccccc1)N(C1CCCCC1)C1CCCCC1 | 90.8% (inactive)
* CCN(CC)C(=O)CC1=C(C)/C(=C/c2[nH]c(-c3ccc[nH]3)cc2OC)N=C1C | 10.9% (inactive)
* O=C(Nc1cc(Cl)ccc1O)c1ccccc1Nc1ccnc(C(F)(F)F)c1 | -2.86% (active)
* O=C(/C=C/c1ccccc1)c1cccc2ccccc12 | 32.1% (inactive)
* CCN(CC)CCOc1ccc2ccc(=O)oc2c1 | 109% (inactive)
* O=C(NNc1nc2cc(F)ccc2n2c(CN3CCOCC3)ccc12)c1ccccc1 | 57.9% (inactive)
* Nc1cc(-c2ccc(Cl)cc2)nn1-c1nnc(/C=C/c2ccco2)c(=O)[nH]1 | 74.1% (inactive)
* COc1ccc(-c2cc(-c3cc(OC)ccc3OC)nc(SCC(C)=O)c2C#N)cc1 | 76.1% (inactive)
* Cc1ccc2c(/C=C/C(=O)c3cc(CN4CCOCC4)c(O)c4nc(C)ccc34)cc(CN3CCOCC3)c(O)c2n1 | 29.6% (inactive)
* C[C@@H]1CN(c2cnc(C(=O)Nc3cc(F)cc4cccnc34)cn2)C[C@H](C)N1 | 76.8% (inactive)
* Cc1cccc(-c2nc(C(C)C)sc2-c2ccnc(NCCCNS(=O)(=O)c3ccc(Cl)cc3)c2)c1 | 82% (inactive)
* CCN(CC)CCOc1ccc2c(-c3ccccc3)c(-c3ccc(OC)cc3)c(=O)oc2c1 | 63.4% (inactive)
* C#Cc1cccc(Nc2ncnc3cc(NC(=O)CCl)ccc23)c1 | -2.33% (active)
* COC(=O)c1c2c(c[n+]([O-])c1C)C(=O)C=C(NCc1ccccc1)C2=O | -15.5% (active)
* Nc1ncnc2c1N=C(c1ccc(Cl)cc1)CC(c1cccc(Nc3ccnc4cc(Cl)ccc34)c1)N2 (stereo not drawn) | 68.2% (inactive)
* CCCn1c(=S)sc2c(NNC(C)=O)nc(C)nc21 | 97.7% (inactive)
* O=C(NC1CCC(Br)CC1)C1CCCC(S(=O)(=O)NC2CCCCC2)C1 (stereo not drawn) | 46.1% [25 µM] (inactive)
* Nc1c(Br)cc2c(c1Br)Cc1cc([N+](=O)[O-])ccc1-2 | 104% (inactive)
